study.system: UniProtKB A0A3F3IEK2
Sequence (A0A3F3IEK2 whole entry): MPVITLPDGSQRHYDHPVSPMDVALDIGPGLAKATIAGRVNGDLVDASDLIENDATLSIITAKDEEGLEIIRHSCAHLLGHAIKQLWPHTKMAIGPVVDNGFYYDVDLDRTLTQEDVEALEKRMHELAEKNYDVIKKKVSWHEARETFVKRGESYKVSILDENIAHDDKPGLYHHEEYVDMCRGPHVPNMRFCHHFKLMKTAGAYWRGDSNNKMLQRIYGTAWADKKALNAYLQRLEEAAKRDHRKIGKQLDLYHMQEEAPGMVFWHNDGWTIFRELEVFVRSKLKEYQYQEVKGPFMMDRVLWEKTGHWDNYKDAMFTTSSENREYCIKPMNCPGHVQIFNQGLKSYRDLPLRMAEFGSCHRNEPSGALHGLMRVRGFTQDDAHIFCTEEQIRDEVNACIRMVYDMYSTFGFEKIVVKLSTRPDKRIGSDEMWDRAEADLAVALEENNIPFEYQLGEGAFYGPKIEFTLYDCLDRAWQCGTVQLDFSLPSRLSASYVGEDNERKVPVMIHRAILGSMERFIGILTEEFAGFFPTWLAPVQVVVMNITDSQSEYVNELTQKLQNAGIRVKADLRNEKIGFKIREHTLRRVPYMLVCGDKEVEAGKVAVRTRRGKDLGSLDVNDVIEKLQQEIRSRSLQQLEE
test.method.notes: Binding affinity to full length recombinant salmonella enterica threonyl-tRNA synthetase assessed as dissociation constant in presence of L-threonine by isothermal titration calorimetry assay
result.type: pKd
Bear in mind: pKd is minus log10 of a mol/L concentration; give just that figure.

Any idea what its pKd is? The compound is "C[C@@H](O)[C@H](N)C(=O)N[C@@H](CNC(=O)CCn1cnc2cc(Cl)c(Cl)cc2c1=O)c1cccc(-c2ccc3c(c2)CNC3=O)c1" 6.54
